- TESTED_SYSTEM: T1, human soluble urokinase plasminogen activator receptor (hsuPAR) (human, UniProt Q03405 23-303, limits assumed)
- T1 construct: also called human suPAR; rhuPAR-His
- T1 sequence (Q03405 23-303 limits assumed): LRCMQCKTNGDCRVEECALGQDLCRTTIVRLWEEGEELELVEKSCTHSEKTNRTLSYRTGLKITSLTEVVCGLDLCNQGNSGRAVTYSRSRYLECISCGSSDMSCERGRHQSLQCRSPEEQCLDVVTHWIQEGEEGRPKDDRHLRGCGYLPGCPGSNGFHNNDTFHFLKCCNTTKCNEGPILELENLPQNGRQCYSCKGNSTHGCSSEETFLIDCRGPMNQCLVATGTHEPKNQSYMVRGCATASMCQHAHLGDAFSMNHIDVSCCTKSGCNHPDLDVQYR
- EXPERIMENT_DESCRIPTION: BLI (Octet) off-rate screen of scFv
Each entry below lists one item and its recorded koff value.
Remember to put the unit after the number in your answer.

BINDER	koff
suPAR_DB02_A09 (scFv, V domains shown, Screened as scFv) VH: QVQLVQSGAEVKKPGASVKVSCKASGYTFTNYYMHWVRQAPGQGLEWMGWIDPEGGSTIYDQKFQGRVTMTRDTSTSTVYMELSSLRSEDTAVYYCARGYDVDWFVYWGQGTLVTVSS VL: DIQMTQSPSSLSASVGDRVTITCSARQSISYMYWYQQKPGKAPKLLIYRTSNLASGVPSRFSGSGSGTDFTLTISSLQPEDFATYYCQQYHSYPPTFGGGTKVEIK	0.00613 s⁻¹

Next, consider the following binder.
Measured koff, suPAR_DB01_G08 (scFv, V domains shown, Screened as scFv) VH: QVQLVQSGAEVKKPGASVKVSCKASGYSFTNYYMHWVRQAPGQGLEWMGWIDHENGNTSYAQKFQGRVTMTRDTSTSTVYMELSSLRSEDTAVYYCARGYDVDWFVYWGQGTLVTVSS VL: DIQMTQSPSSLSASVGDRVTITCSARQSVSYMYWYQQKPGKAPKLLIYRTSSLASGVPSRFSGSGSGTDFTLTISSLQPEDFATYYCQQYHSYPPTFGGGTKVEIK : 0.00309 s⁻¹
